Consider the following molecules and their measured MIC readings.
# Tested on: Staphylococcus aureus ATCC 29213
# Type: cell-based
Non-standard residues stand in square brackets, D forms with d. Residues, ends and D or L forms follow the SMILES beside them. *: point of attachment. Tetradecanoyl(3R-OH) = CCCCCCCCCCC[C@@H](O)CC(=O)*; Tetradecanoyl(3S-OH) = CCCCCCCCCCC[C@H](O)CC(=O)*

| molecule | system | MIC, µg/mL |
| --- | --- | --- |
| CCCCCCCCCCC[C@H](O)CC(=O)N[C@@H](Cc1c[nH]c2ccccc12)C(=O)N[C@@H](CO)C(=O)N[C@H](Cc1c[nH]c2ccccc12)C(=O)N[C@@H](Cc1ccccc1)C(=O)N[C@@H](C(=O)N[C@@H](C)C(=O)N[C@H](C(=O)O)C(C)C)[C@H](C)O [13S] ({Tetradecanoyl(3S-OH)}-WS[dW]F[dT]AV-OH) | Staphylococcus aureus ATCC 29213 | 2 |
| CCCCCCCCCCC[C@@H](O)CC(=O)N[C@@H](Cc1c[nH]c2ccccc12)C(=O)N[C@@H](CO)C(=O)N[C@H](Cc1c[nH]c2ccccc12)C(=O)N[C@@H](Cc1ccccc1)C(=O)N[C@@H](C(=O)N[C@H](C(=O)N[C@H](C(=O)O)C(C)C)C(C)C)[C@H](C)O [12R] ({Tetradecanoyl(3R-OH)}-WS[dW]F[dT]VV-OH) | Staphylococcus aureus ATCC 29213 | 16 |
| CCCCCCCCCCC[C@@H](O)CC(=O)N[C@@H](Cc1c[nH]c2ccccc12)C(=O)N[C@@H](CO)C(=O)N[C@H](Cc1c[nH]c2ccccc12)C(=O)N[C@@H](Cc1ccccc1)C(=O)N[C@@H](C(=O)N[C@@H](C)C(=O)N[C@H](C(=O)O)C(C)C)[C@H](C)O [13R] ({Tetradecanoyl(3R-OH)}-WS[dW]F[dT]AV-OH) | Staphylococcus aureus ATCC 29213 | 4 |
| CCCCCCCCCCC[C@H](O)CC(=O)N[C@@H](Cc1c[nH]c2ccccc12)C(=O)N[C@@H](CO)C(=O)N[C@H](Cc1c[nH]c2ccccc12)C(=O)N[C@@H](Cc1ccccc1)C(=O)N[C@@H](C(=O)N[C@H](C(=O)N[C@H](C(=O)O)C(C)C)C(C)C)[C@H](C)O [12S] ({Tetradecanoyl(3S-OH)}-WS[dW]F[dT]VV-OH) | Staphylococcus aureus ATCC 29213 | 8 |
| CCCCCCCCCCC[C@H](O)CC(=O)N[C@@H](Cc1ccc(O)cc1)C(=O)N[C@@H](CO)C(=O)N[C@H](Cc1ccc(O)cc1)C(=O)N[C@@H](Cc1ccccc1)C(=O)N[C@@H](C(=O)N[C@H](C(=O)N[C@H](C(=O)O)C(C)C)C(C)C)[C@H](C)O [compound 1, reference compound] ({Tetradecanoyl(3S-OH)}-YS[dY]F[dT]VV-OH; N-terminus and C-terminus assumed) | Staphylococcus aureus ATCC 29213 | 8 |
